LC50 at 96 h listing for selected compounds.
assay-procedure: Ninety-six-hour flow-through acute toxicity, sheepshead minnow
Assay type: in vivo, Cyprinodon variagatus
condition-description: 96 h flow-through, filtered seawater
reported-property: LC50 at 96 h (ng/mL)

compound	unit-name	reported-value
CC1(C)C(C=C(Cl)Cl)C1C(=O)O[C@H](C#N)c1cccc(Oc2ccccc2)c1 (mixture of isomers)	ng/mL	2.37
CC1(C)C(C=C(Cl)Cl)C1C(=O)OC(C#N)c1cccc(Oc2ccccc2)c1 (centres unmarked) [cypermethrin, reference compound]	ng/mL	3.88

###

assay-procedure: Ninety-six-hour flow-through acute toxicity, rainbow trout
Format: in vivo, Oncorhynchus mykiss
condition-description: 96 h flow-through, well water
reported-property: LC50 at 96 h (ng/mL)

compound	unit-name	reported-value
CC1(C)C(C=C(Cl)Cl)C1C(=O)OC(C#N)c1cccc(Oc2ccccc2)c1 (centres unmarked) [cypermethrin, reference compound]	ng/mL	0.897
CC1(C)C(C=C(Cl)Cl)C1C(=O)O[C@H](C#N)c1cccc(Oc2ccccc2)c1 (mixture of isomers)	ng/mL	0.69

These entries and their values trace back to patent US5164411A.
